- Test system: 616215-338-R-J1-PDC complex spheroid viability
- METHOD_DESCRIPTION: Anticancer human tumor 616215-338-R-J1-PDC patient-derived colon adenocarcinoma cell line growth inhibition [RAS]
- CONDITION_LABEL: second compound 3.16 µM; first compound 3.16 µM; stronger effect = lower value
Hi! Just check whether viability, T/C is below 40%. Below gives Criterion met, equal or above gives Criterion not met.

Example results:
Req: Bench note: check whether CC(C)NCC(C(=O)N1CCN(c2ncnc3c2C(C)CC3O)CC1)c1ccc(Cl)cc1 (stereo not given) + C#Cc1c(F)ccc2cc(O)cc(-c3ncc4c(N5CC6CCC(C5)N6)nc(OCC56CCCN5CC(F)C6)nc4c3F)c12 shows viability, T/C below 40%
Resp: Criterion not met

Req: Please let me know if CCC(CC)c1cc(NC2CCC(N)C2)n2nccc2n1 (stereo not given) + C#Cc1c(F)ccc2cc(O)cc(-c3ncc4c(N5CC6CCC(C5)N6)nc(OCC56CCCN5CC(F)C6)nc4c3F)c12 shows viability, T/C below 40%.
Resp: Criterion met

Req: Dear reviewer, please state whether CC(=O)OC12COC1CC(O)C1(C)C(=O)C(O)C3=C(C)C(OC(=O)C(O)C(NC(=O)OC(C)(C)C)c4ccccc4)CC(O)(C(OC(=O)c4ccccc4)C21)C3(C)C (stereo not given) + C#Cc1c(F)ccc2cc(O)cc(-c3ncc4c(N5CC6CCC(C5)N6)nc(OCC56CCCN5CC(F)C6)nc4c3F)c12 has viability, T/C strictly beneath 40%.
Resp: Criterion met

Continuing:
Req: Would you kindly verify if viability, T/C of CC1(O)CCCC1n1c(=O)c(C(F)F)cc2cnc(NC3CCN(S(C)(=O)=O)CC3)nc21 (stereo not given) + C#Cc1c(F)ccc2cc(O)cc(-c3ncc4c(N5CC6CCC(C5)N6)nc(OCC56CCCN5CC(F)C6)nc4c3F)c12 is strictly less than 40%?
Resp: Criterion met

Req: # TODO verify viability, T/C < 40% strictly for this compound: Cc1nc(N2CCC3(CC2)COC(C)C3N)c(CO)nc1Sc1ccnc(N)c1Cl (stereo not given) + C#Cc1c(F)ccc2cc(O)cc(-c3ncc4c(N5CC6CCC(C5)N6)nc(OCC56CCCN5CC(F)C6)nc4c3F)c12
Resp: Criterion not met

----------
- Tested on: 616215-338-R-J1-PDC complex spheroid viability
- METHOD_DESCRIPTION: Anticancer human tumor 616215-338-R-J1-PDC cell line growth inhibition [RAS];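 also: spheroids exposed to agents for seven days before viability readout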
- CONDITION_LABEL: curve of first compound; second compound 0.1 µM
- Description: RAS pathway inhibitors in Combinations in Complex Spheroids A high-throughput screen of multi-cell type tumor spheroids was designed to identify active combinations of RAS pathway inhibitors and targeted small molecules. Complex spheroids include a stromal component modeled by human endothelial cells (HUVEC) and fibroblasts modeled by human mesenchymal stem cells (MSCs). […] Compounds. […] If the clinical Cmax for an agent had not been determined, the highest concentration tested was 10 microM. […]
VALUE_KIND: pIC50
In textbook form, pIC50 equals minus log to base ten of the concentration in mol/L.

Req: What value of measured pIC50 is listed for CC1(C)CCC(Nc2ncc(C(F)(F)F)c(-c3c[nH]c4c(P(C)(C)=O)c(C#N)ccc34)n2)CN1 (stereo not given) + C=CC(=O)N1CCN(c2nc(OCC3CCCN3C)nc3c(F)c(-c4nc(N)cc(C)c4C(F)(F)F)c(Cl)cc23)C(C)C1 ?
Resp: 7.79

Next:
Req: Quick check: pIC50 of O=C(c1ccc(F)c(F)c1Nc1ccc(I)cc1F)N1CC(O)([C@@H]2CCCCN2)C1 + C#Cc1c(F)ccc2cc(O)cc(-c3ncc4c(N5CC6CCC(C5)N6)nc(OCC56CCCN5CC(F)C6)nc4c3F)c12 ?
Resp: 7.12
